Provenance of the data: patent US12227485B2

Provide the reported MIC PM 12080 of each item.
system: Pasteurella multocida; assay: MIC by broth-microdilution method (CLSI VET01-A4), Pasteurella multocida strains; type: cell-based; conditions: Pasteurella multocida PM 12080 (IV102277-0093), BRD field isolate
Answers are plain numbers, in µM.

# count of solved cases: 3
- MOLECULE: "C=CCNCc1ccc(C#Cc2ccc3c(N[C@H](C(=O)NO)[C@@H](C)O)nsc3c2)cc1 [Compound 11]"
  EXPERIMENTAL TARGET: "Pasteurella multocida"
  MIC PM 12080 [µM]: 0.4
- MOLECULE: "C=CCNCc1ccc(C#Cc2ccc3c(N[C@H](C(=O)NO)[C@@H](C)O)ncnc3c2)cc1 [Compound 4]"
  EXPERIMENTAL TARGET: "Pasteurella multocida"
  MIC PM 12080 [µM]: 1.6
- MOLECULE: "C[C@@H](O)[C@H](Nc1ncnc2cc(C#Cc3ccc(CNCC(F)(F)F)cc3)ccc12)C(=O)NO [Compound 6]"
  EXPERIMENTAL TARGET: "Pasteurella multocida"
  MIC PM 12080 [µM]: 0.4

Could I get MIC PM 12080 for every one of these entries?
1. C[C@@H](O)[C@H](Nc1nsc2cc(C#Cc3ccc(CNCC(F)(F)F)cc3)ccc12)C(=O)NO [Compound 15]
2. C[C@@H](O)[C@H](Nc1nsc2cc(C#Cc3ccc(CN4CCOCC4)cc3)ccc12)C(=O)NO [Compound 13]

0.4
1.6

###

system: Pasteurella multocida; assay: MIC by broth-microdilution method (CLSI VET01-A4), Pasteurella multocida strains; format: cell-based; conditions: Pasteurella multocida PM 6391 (ATCC 43137), reference strain
MEASURE NAME: MIC PM 6391 (µM)
Answers are plain numbers, in µM.

- COMPOUND: "COCCNCc1ccc(C#Cc2ccc3c(NC(C(=O)NO)C(C)(C)N)ncnc3c2)cc1 (racemic)"
  QUANTITY UNIT: "µM"
  MIC PM 6391: 6.3

Would you mind listing MIC PM 6391 for each of the following compounds?
1. C[C@@H](O)[C@H](Nc1ncnc2cc(C#Cc3ccc(CNCc4ccccc4)cc3)ccc12)C(=O)NO
2. C[C@@H](O)[C@H](Nc1nsc2cc(C#Cc3ccc(CN4CCOCC4)cc3)ccc12)C(=O)NO
3. C[C@@H](O)[C@H](Nc1ncnc2cc(C#Cc3ccc(CN4CCOCC4)cc3)ccc12)C(=O)NO
4. COCCNCc1ccc(C#Cc2ccc3c(N[C@H](C(=O)NO)[C@@H](C)O)ncnc3c2)cc1
5. C=CCNCc1ccc(C#Cc2ccc3c(N[C@H](C(=O)NO)[C@@H](C)O)ncnc3c2)cc1

1. 0.2
2. 100
3. 0.2
4. 0.4
5. 0.4

###

Would you kindly list MIC MH 10720 for each of these molecules?
test system: Mannheimia haemolytica; test: MIC by broth-microdilution method (CLSI VET01-A4), Mannheimia haemolytica strains; assay type: cell-based; conditions: Mannheimia haemolytica MH 10720 (154), BRD field isolate
Give bare numbers, in µM.

- MOLECULE: "COCCNCc1ccc(C#Cc2ccc3c(N[C@H](C(=O)NO)[C@@H](C)O)ncnc3c2)cc1"
  QUANTITY UNIT: "µM"
  MIC MH 10720: 6.3
- MOLECULE: "COCCNCc1ccc(C#Cc2ccc3c(N[C@H](C(=O)NO)[C@@H](C)O)nsc3c2)cc1"
  QUANTITY UNIT: "µM"
  MIC MH 10720: 0.2
- MOLECULE: "C[C@@H](O)[C@H](Nc1nsc2cc(C#Cc3ccc(CN4CCOCC4)cc3)ccc12)C(=O)NO"
  QUANTITY UNIT: "µM"
  MIC MH 10720: 1.6
- MOLECULE: "COCCNCc1ccc(C#Cc2ccc3c(NC(C(=O)NO)C(C)(C)N)ncnc3c2)cc1 (racemic)"
  QUANTITY UNIT: "µM"
  MIC MH 10720: 6.3
- MOLECULE: "C[C@@H](O)[C@H](Nc1ncnc2cc(C#Cc3ccc(CNCC(F)(F)F)cc3)ccc12)C(=O)NO"
  QUANTITY UNIT: "µM"
  MIC MH 10720: 0.4

Each molecule below has a recorded value; state its MIC MH 10720.
1. C[C@@H](O)[C@H](Nc1ncnc2cc(C#Cc3ccc(CNCc4ccccc4)cc3)ccc12)C(=O)NO
2. C[C@@H](O)[C@H](Nc1ncnc2cc(C#Cc3ccc(CN4CCOCC4)cc3)ccc12)C(=O)NO

1. 0.8
2. 0.2

Field MIC MH 10720 (entry C=CCNCc1ccc(C#Cc2ccc3c(N[C@H](C(=O)NO)[C@@H](C)O)ncnc3c2)cc1 ) reads 1.6

###

tested on: Mannheimia haemolytica; experiment: MIC by broth-microdilution method (CLSI VET01-A4), Mannheimia haemolytica strains; format: cell-based; details: Mannheimia haemolytica MH 6374 (ATCC 33396), reference strain
So I've got a bunch of compounds here, and I need their MIC MH 6374 values.
Numbers only, in µM.

- TEST SMILES: "C[C@@H](O)[C@H](Nc1ncnc2cc(C#Cc3ccc(CNCC(F)(F)F)cc3)ccc12)C(=O)NO"
  EXPERIMENTAL TARGET: "Mannheimia haemolytica"
  MIC MH 6374, µM: 0.8
- TEST SMILES: "C[C@@H](O)[C@H](Nc1ncnc2cc(C#Cc3ccc(CNCc4ccccc4)cc3)ccc12)C(=O)NO"
  EXPERIMENTAL TARGET: "Mannheimia haemolytica"
  MIC MH 6374, µM: 0.8
- TEST SMILES: "C[C@@H](O)[C@H](Nc1nsc2cc(C#Cc3ccc(CN4CCOCC4)cc3)ccc12)C(=O)NO"
  EXPERIMENTAL TARGET: "Mannheimia haemolytica"
  MIC MH 6374, µM: 6.3
- TEST SMILES: "COCCNCc1ccc(C#Cc2ccc3c(N[C@H](C(=O)NO)[C@@H](C)O)ncnc3c2)cc1"
  EXPERIMENTAL TARGET: "Mannheimia haemolytica"
  MIC MH 6374, µM: 6.3
- TEST SMILES: "C=CCNCc1ccc(C#Cc2ccc3c(N[C@H](C(=O)NO)[C@@H](C)O)ncnc3c2)cc1"
  EXPERIMENTAL TARGET: "Mannheimia haemolytica"
  MIC MH 6374, µM: 3.1
- TEST SMILES: "C[C@@H](O)[C@H](Nc1ncnc2cc(C#Cc3ccc(CN4CCOCC4)cc3)ccc12)C(=O)NO"
  EXPERIMENTAL TARGET: "Mannheimia haemolytica"
  MIC MH 6374, µM: 3.1

Looking up COCCNCc1ccc(C#Cc2ccc3c(N[C@H](C(=O)NO)[C@@H](C)O)nsc3c2)cc1 , I found its MIC MH 6374 recorded as 0.8

###

System: Mannheimia haemolytica
Test: MIC by broth-microdilution method (CLSI VET01-A4), Mannheimia haemolytica strains
Format: cell-based
Settings: Mannheimia haemolytica MH 12587 (1071), BRD field isolate, macrolide-resistance: erm+, E+
Experimental: For example, representative compounds were tested against Mannheimia haemolytica and Pasteurella multocida, using the conventional broth-dilution assay. The Minimum inhibitory concentrations (MIC) of compounds according to the invention for a number of veterinary bacterial pathogens were determined by the broth-microdilution method according to CLSI document VET01-A4. Microdilution trays containing a doubling dilution series of the test compound were used for the tests. […]
MEASURE NAME: MIC MH 12587 (µM)
One number for each entry, in µM.

- COMPOUND: "COCCNCc1ccc(C#Cc2ccc3c(N[C@H](C(=O)NO)[C@@H](C)O)ncnc3c2)cc1"
  EXPERIMENTAL TARGET: "Mannheimia haemolytica"
  MIC MH 12587 / µM: 12.5
- COMPOUND: "C[C@@H](O)[C@H](Nc1nsc2cc(C#Cc3ccc(CNCC(F)(F)F)cc3)ccc12)C(=O)NO"
  EXPERIMENTAL TARGET: "Mannheimia haemolytica"
  MIC MH 12587 / µM: 3.1
- COMPOUND: "C[C@@H](O)[C@H](Nc1nsc2cc(C#Cc3ccc(CNCc4ccccc4)cc3)ccc12)C(=O)NO"
  EXPERIMENTAL TARGET: "Mannheimia haemolytica"
  MIC MH 12587 / µM: 1.6
- COMPOUND: "C[C@@H](O)[C@H](Nc1nsc2cc(C#Cc3ccc(CNC4CC4)cc3)ccc12)C(=O)NO"
  EXPERIMENTAL TARGET: "Mannheimia haemolytica"
  MIC MH 12587 / µM: 0.8
- COMPOUND: "C[C@@H](O)[C@H](Nc1ncnc2cc(C#Cc3ccc(CNCC(F)(F)F)cc3)ccc12)C(=O)NO"
  EXPERIMENTAL TARGET: "Mannheimia haemolytica"
  MIC MH 12587 / µM: 1.6

Parameters: items (list). Returns: MIC MH 12587 for each item.
1. C[C@@H](O)[C@H](Nc1ncnc2cc(C#Cc3ccc(CNC4CC4)cc3)ccc12)C(=O)NO
2. C[C@@H](O)[C@H](Nc1nsc2cc(C#Cc3ccc(CN4CCOCC4)cc3)ccc12)C(=O)NO
3. COCCNCc1ccc(C#Cc2ccc3c(NC(C(=O)NO)C(C)(C)N)ncnc3c2)cc1 (racemic)
4. C[C@@H](O)[C@H](Nc1ncnc2cc(C#Cc3ccc(CNCc4ccccc4)cc3)ccc12)C(=O)NO
5. C[C@@H](O)[C@H](Nc1ncnc2cc(C#Cc3ccc(CN4CCOCC4)cc3)ccc12)C(=O)NO
6. COCCNCc1ccc(C#Cc2ccc3c(N[C@H](C(=O)NO)[C@@H](C)O)nsc3c2)cc1

[3.1, 6.3, 50, 3.1, 3.1, 3.1]

For each of the compounds below, note its MIC MH 12587.
1. C=CCNCc1ccc(C#Cc2ccc3c(N[C@H](C(=O)NO)[C@@H](C)O)ncnc3c2)cc1
2. C=CCNCc1ccc(C#Cc2ccc3c(N[C@H](C(=O)NO)[C@@H](C)O)nsc3c2)cc1

1: 6.3; 2: 1.6
